Provenance of the data: ChEMBL document CHEMBL1138038

Examples of substances with documented IC50 follow.
Target: Human immunodeficiency virus type 1 integrase (Human immunodeficiency virus 1)
Sequence (Q7ZJM1 whole entry): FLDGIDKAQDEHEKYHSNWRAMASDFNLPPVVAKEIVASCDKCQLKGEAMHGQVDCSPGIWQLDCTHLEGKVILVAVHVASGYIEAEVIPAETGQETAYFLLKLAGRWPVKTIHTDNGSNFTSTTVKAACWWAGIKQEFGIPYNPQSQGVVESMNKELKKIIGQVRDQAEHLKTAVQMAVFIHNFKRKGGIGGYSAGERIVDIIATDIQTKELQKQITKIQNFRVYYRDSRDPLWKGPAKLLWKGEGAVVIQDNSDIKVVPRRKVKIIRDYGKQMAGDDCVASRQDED
Assay: Inhibition of wild type HIV1 integrase strand transfer activity

H-PAETGQET-NH2 ... > 2000 µM
H-GYSAGERIVD-NH2 ... > 2000 µM
H-FGIPYNPQSQ-NH2 ... > 1000 µM
H-ACWWAGIKQAF-OH ... > 333 µM
H-ACWWAGAKQEF-OH ... > 333 µM
H-TAYALLKLAGRW-OH ... > 333 µM
H-WAGIKQ-NH2 ... > 100 µM
H-TAYFLLKLAGRA-OH ... > 333 µM

The reported IC50 of the substance H-TAYFLAKLAGRW-OH was > 333 µM

The reported IC50 of the substance H-ACWWAGIRQEF-NH2 was > 333 µM

* * *

Biological target: Human immunodeficiency virus type 1 integrase (Human immunodeficiency virus 1)
Test: Inhibition of wild type HIV1 integrase 3' processing activity
parameter_measured: IC50

H-VRDQAEHLKT-NH2 ... > 2000 µM
H-TAYFLAKLAGRW-OH ... > 333 µM

# ---- query substance ----
The reported IC50 of the substance H-KLAGRW-NH2 was > 100 µM

* * *

Examples of substances with documented IC50 follow.
Molecular target: Human immunodeficiency virus type 1 integrase (Human immunodeficiency virus 1)
Experiment: Inhibition of wild type HIV1 integrase 3' processing activity

H-FGIPYNPQSQ-NH2 ... > 1000 µM

The reported IC50 of the substance H-ACWWAGIRQEF-NH2 was > 333 µM

The reported IC50 of the substance H-TAYFLLKLAGRA-OH was > 333 µM

The reported IC50 of the substance H-WKGPAKLLWK-NH2 was > 1000 µM

The reported IC50 of the substance H-ACWWAGIKAEF-OH was > 333 µM
